assayedSystem: HIV-1 APV-17 Env (clade B pseudovirus) (HIV-1)
measurementProtocol: cell-based or functional assay
observable: IC50 (µg/mL), pseudovirus neutralization

Problem: Provide measured IC50 (µg/mL), pseudovirus neutralization value, entry: 1495_C14 (PGC14) (antibody, human IgG1, lambda, V domains shown) VH: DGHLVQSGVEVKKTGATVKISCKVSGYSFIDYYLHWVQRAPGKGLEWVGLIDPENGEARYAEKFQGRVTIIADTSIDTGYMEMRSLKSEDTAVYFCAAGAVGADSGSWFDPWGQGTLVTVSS VL: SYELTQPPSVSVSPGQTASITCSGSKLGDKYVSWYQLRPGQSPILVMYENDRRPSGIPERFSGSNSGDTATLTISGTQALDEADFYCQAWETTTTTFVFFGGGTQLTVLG
Result: > 50 µg/mL

Problem: Provide measured IC50 (µg/mL), pseudovirus neutralization value, entry: 1496_C09 (PG9) (TCN-109) (antibody, V domains shown) VH: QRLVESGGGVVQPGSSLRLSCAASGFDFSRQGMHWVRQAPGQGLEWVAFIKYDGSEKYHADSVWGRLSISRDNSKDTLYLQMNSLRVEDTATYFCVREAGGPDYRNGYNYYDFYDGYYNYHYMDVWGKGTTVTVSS VL: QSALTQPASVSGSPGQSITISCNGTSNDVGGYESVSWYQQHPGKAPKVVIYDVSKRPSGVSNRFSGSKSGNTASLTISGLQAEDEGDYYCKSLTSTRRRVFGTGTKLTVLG
Result: 26.4 µg/mL

Problem: Provide measured IC50 (µg/mL), pseudovirus neutralization value, entry: 1460_G14 (PGG14) (antibody, human IgG1, kappa, V domains shown) VH: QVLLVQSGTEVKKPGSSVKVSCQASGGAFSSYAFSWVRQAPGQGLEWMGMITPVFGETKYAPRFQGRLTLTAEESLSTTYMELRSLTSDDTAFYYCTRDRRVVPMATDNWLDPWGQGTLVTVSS VL: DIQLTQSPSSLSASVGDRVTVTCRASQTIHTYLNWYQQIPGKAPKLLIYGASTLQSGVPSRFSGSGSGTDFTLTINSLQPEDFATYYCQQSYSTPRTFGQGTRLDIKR
Result: > 50 µg/mL

Problem: Provide measured IC50 (µg/mL), pseudovirus neutralization value, entry: 1456_P20 (PG20) (antibody, human IgG1, kappa, V domains shown) VH: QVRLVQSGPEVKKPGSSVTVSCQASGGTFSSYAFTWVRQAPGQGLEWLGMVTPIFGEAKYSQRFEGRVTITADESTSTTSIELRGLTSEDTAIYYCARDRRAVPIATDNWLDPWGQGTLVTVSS VL: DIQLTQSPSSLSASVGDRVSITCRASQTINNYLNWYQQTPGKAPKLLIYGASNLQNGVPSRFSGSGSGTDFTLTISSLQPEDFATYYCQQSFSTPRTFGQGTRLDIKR
Result: > 50 µg/mL
